test system: SF-268 CNS; experiment: NCI-60 one-dose screen, 48 h (100 = growth as untreated, 0 = no growth, -100 = all killed); details: 10 µM unless noted
Compounds without any hit were thinned out: in the full panel of roughly 83,000, 20% have a hit.
Exercise: for every item that follows, state its recorded growth.
Give a bare numeral; the unit % is implied.

Prompt line: Please state recorded growth (tested on SF-268 CNS) of COc1ccc(/C=C2/SC(=O)N(CC(=O)N3CCN(c4cc5c(cc4F)c(=O)c(C(=O)O)cn5C4CC4)CC3)C2=O)cc1
Response line: 101

Prompt line: Another compound: Cc1cc2c(c(C)c1Cl)C(=O)/C(=C/c1ccco1)O2
Response line: 109

Prompt line: Another compound: COc1c(B(O)O)cccc1-c1nc2ccc3n[nH]c(F)c3c2c2c1CCCC2
Response line: 50.5

Prompt line: Another compound: CN1C(=O)N(C)C2Nn3c(s/c(=C4\C(=O)N(CCc5ccccc5)c5ccccc54)c3=O)=NC21 (stereo not given)
Response line: 60.9

Prompt line: Another compound: CCn1c(-c2nonc2Nc2ccc(OC)cc2)nc2ccccc21
Response line: 110
